tested on: Brain; assay: Ratio of drug level in brain after 2 mins to drug level in brain after 60 mins in ICR mouse; assay type: ADME, tissue-based; details: in vivo
Metric: Ratio
// print number alone

# example entries with known answers
>  <Molecular string>
CNc1ccc(-c2cc3cc([125I])ccc3[nH]2)cc1

>  <Ratio>
1.33

$$$$
>  <Molecular string>
OCCOc1ccc(-c2cc3cc([125I])ccc3[nH]2)cc1

>  <Ratio>
1.17

$$$$
>  <Molecular string>
COc1ccc(-c2cc3cc([125I])ccc3[nH]2)cc1

>  <Ratio>
1.82

$$$$
>  <Molecular string>
CN(C)c1ccc(-c2cc3cc([125I])ccc3[nH]2)cc1

>  <Ratio>
1.68

$$$$

Now for the molecule whose Ratio we want.
Ratio in this record for CN(CC[18F])c1ccc(-c2cc3ccccc3[nH]2)cc1 : 2.1

Provenance of the data: ChEMBL document CHEMBL2396535
